Hi there, I'd appreciate the recorded DC50 for every entry that follows.
# MEASUREMENT_TARGET: BTK (Homo sapiens, UniProt Q06187)
# Construct: High control=Cell group with added DMSO and without compound, indicating microplate readings without BTK degradation; endogenous in cells; host or cells: TMD-8
# Sequence (Q06187 whole entry): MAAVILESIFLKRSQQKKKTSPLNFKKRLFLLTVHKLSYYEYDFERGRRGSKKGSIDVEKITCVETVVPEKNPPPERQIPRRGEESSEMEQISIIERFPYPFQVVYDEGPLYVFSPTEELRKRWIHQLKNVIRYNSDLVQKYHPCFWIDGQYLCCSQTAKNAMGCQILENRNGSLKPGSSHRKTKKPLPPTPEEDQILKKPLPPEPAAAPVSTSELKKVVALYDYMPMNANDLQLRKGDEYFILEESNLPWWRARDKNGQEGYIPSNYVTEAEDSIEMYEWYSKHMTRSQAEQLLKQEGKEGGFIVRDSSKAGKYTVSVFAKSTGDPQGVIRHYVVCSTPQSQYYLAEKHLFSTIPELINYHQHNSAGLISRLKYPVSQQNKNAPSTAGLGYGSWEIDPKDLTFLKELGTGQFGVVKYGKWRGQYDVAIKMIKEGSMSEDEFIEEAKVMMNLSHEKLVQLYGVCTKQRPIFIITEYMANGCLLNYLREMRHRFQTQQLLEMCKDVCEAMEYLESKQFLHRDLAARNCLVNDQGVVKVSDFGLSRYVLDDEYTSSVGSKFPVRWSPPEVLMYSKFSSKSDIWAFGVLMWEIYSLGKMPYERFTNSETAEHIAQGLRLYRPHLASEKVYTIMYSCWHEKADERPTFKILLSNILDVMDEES
# ASSAY_EXPLANATION: BTK degradation in TMD-8 cells (HTRF assay)
# Assay type: cell-based
# TEST_PARAMETERS: 6 h treatment, IC50 (DC50) of BTK degradation
# Experimental: TMD-8 cells were treated with compounds diluted in 0.2% DMSO, dilution was done according to the following protocol: (1) making 500× stock solution in DMSO from 1 mM by 6-fold dilution, total 8 doses were included; (2) making 2× solution in cell culture medium by transferring 0.5 μl 500× stock solution into 125 μl medium; (3) adding 15 μl of 2× solution to cells for incubation of 6 h. […]
Answers are plain numbers, in nM.

Worked examples follow.
Cc1cc(-c2ncnc3[nH]c4cc(N5CCN(C6CC(c7ccc(N8CCC(=O)NC8=O)cc7)C6)CC5)ccc4c23)ccc1[C@@H](C)NC(=O)c1nc(C2(C)CC2)no1 (stereo partly drawn): 0.197
COc1cc2c(cc1N1CCN(C3CC(c4ccc([C@H]5CCC(=O)NC5=O)cc4)C3)CC1)[nH]c1ncnc(-c3ccc([C@@H](C)NC(=O)c4nc(C5(C)CC5)no4)c(C)c3F)c12 (stereo partly drawn): 15.9

Switching to the query record.
Task: # get_value(readout= DC50, system= BTK (Homo sapiens, UniProt Q06187)) for COc1cc2c(cc1N1CCN(CC3CC(c4ccc(C5CCC(=O)NC5=O)cc4)C3)CC1)[nH]c1ncnc(-c3ccc([C@@H](C)NC(=O)c4nc(C(C)(C)C)no4)c(C)c3)c12 (stereo partly drawn)
Result: 1.7

* * *

# MEASUREMENT_TARGET: BTK (Homo sapiens, UniProt Q06187)
# Construct: High control=Cell group with added DMSO and without compound, indicating microplate readings without BTK degradation; endogenous in cells; host or cells: TMD-8
# ASSAY_EXPLANATION: BTK degradation in TMD-8 cells (HTRF assay)
# Format: cell-based
# TEST_PARAMETERS: 6 h treatment, IC50 (DC50) of BTK degradation
# if measured DC50 < 2 nM: label 1  # else: label 0

COc1cc2c(cc1N1CCN(CC3CCN(c4ccc(N5CCC(=O)NC5=O)cc4)CC3)CC1)[nH]c1ncnc(-c3ccc([C@@H](C)NC(=O)c4nc(C(C)(C)C)no4)c(C)c3F)c12 [Example 54]: label 0
Cc1cc(-c2ncnc3[nH]c4cc(C5CCN(CC6CCN(c7ccc(N8CCC(=O)NC8=O)cc7)CC6)CC5)ccc4c23)ccc1[C@@H](C)NC(=O)c1nc(C(C)(C)C)no1 [Example 5]: label 1
CC(C)(C)c1noc(C(=O)NC(C)(C)C2CCN(c3ncnc4[nH]c5cc(N6CCN(CC7CCN(c8ccc(N9CCC(=O)NC9=O)cc8)CC7)CC6)ccc5c34)CC2)n1 [Example 131]: label 0
Cc1cc(-c2ncnc3[nH]c4cc(N5CCN(CC6CCN(c7ccc(N8CCC(=O)NC8=O)c(C)c7)CC6)CC5)ccc4c23)ccc1[C@@H](C)NC(=O)c1nc(C(C)(C)C)no1 [Example 8]: label 1

Task: In the record for Cc1cc(-c2ncnc3[nH]c4cc(N5CCN(C6CN(C7CN(c8ccc9c(c8)C(=O)N(C8CCC(=O)NC8=O)C9=O)C7)C6)CC5)ccc4c23)ccc1[C@@H](C)NC(=O)c1nc(C2(C)CC2)no1 (some centres unmarked) [Example 121] , is DC50 less than 2 nM?
Result: label 1

Task: In the record for Cc1cc(-c2ncnc3[nH]c4cc(C5CCN(C6CC(c7ccc([C@H]8CCC(=O)NC8=O)cc7)C6)C5)ccc4c23)ccc1[C@@H](C)NC(=O)c1nc(C(C)(C)C)no1 (some centres unmarked) [Example 20] , is DC50 less than 2 nM?
Result: label 1

Task: In the record for Cc1c([C@@H](C)NC(=O)c2nc(C3(C)CC3)no2)ccc(-c2ncnc3[nH]c4cc(N5CCN(CC6CCN(c7ccc(N8CCC(=O)NC8=O)cc7)CC6)CC5)ccc4c23)c1F [Example 64] , is DC50 less than 2 nM?
Result: label 0

Task: In the record for Cc1cc(-c2ncnc3[nH]c4cc(N5CCN(CCc6ccc7c(c6)C6(CC6)C(=O)N7C6CCC(=O)NC6=O)CC5)ccc4c23)ccc1[C@@H](C)NC(=O)c1nc(C2(C)CC2)no1 (some centres unmarked) [Example 123] , is DC50 less than 2 nM?
Result: label 1

Task: In the record for Cc1cc(-c2ncnc3[nH]c4ccc(C5CCN(CC6CCN(c7ccc(N8CCC(=O)NC8=O)cc7)CC6)CC5)cc4c23)ccc1CNC(=O)c1nc(C(C)(C)C)no1 [Example 2] , is DC50 less than 2 nM?
Result: label 0

Task: In the record for Cc1cc(-c2ncnc3[nH]c4cc(N5CCC6(CC5)CCN(C5CC(c7ccc(NC8CCC(=O)NC8=O)cc7)C5)C6)ccc4c23)ccc1[C@@H](C)NC(=O)c1nc(C(C)(C)C)no1 (some centres unmarked) [Example 103] , is DC50 less than 2 nM?
Result: label 0
